# study.target: Tyrosine-protein kinase Fyn (Homo sapiens)
# measurement.conditions: at 1 µM
# Description: GSK_PKIS: FYN mean inhibition at 1 uM [Nanosyn]
Mark condition met for reported inhibition of 5% or greater; mark condition not met for anything smaller.

Examples with answers:
COc1cc(/C=N/Nc2ncnc3[nH]ncc23)ccc1O | condition met
CCn1c(-c2nonc2N)nc2cnc(Oc3cccc(NC(=O)c4ccc(N(C)C)cc4)c3)cc21 | condition not met
c1ccc(-c2nc3n(c2-c2ccc4c(c2)OCO4)CCC3)nc1 | condition not met

Does the reported inhibition for Cc1cccc(Nc2ncc(-c3ccccc3)o2)c1 fall at or above the 5% mark?
condition met

Quick check, inhibition >= 5%? COc1cc2c(cc1Nc1nc(Nc3ccsc3C(N)=O)c3cc[nH]c3n1)N(C(=O)CN(C)C)CCC2(C)C
condition not met

Does the compound COc1cccc(-n2ncc3c(N/N=C/c4ccc(F)cc4)ncnc32)c1 have recorded inhibition that is 5% or more?
condition met

# bool: inhibition of O=C(O[C@H]1CN[C@H](C#Cc2cc3ncnc(Nc4ccc(Cc5ccccc5)cc4)c3s2)C1)N1CCOCC1 >= 5%
condition met

Hi, just wondering whether FC(F)(F)c1cccc(-c2nn3ncccc3c2-c2ccnc(Nc3ccc4c(c3)OCCO4)n2)c1 shows inhibition of 5% or higher.
condition met

Is inhibition at least 5%? Consider CCCN1CCC(c2ccc(Nc3nc(Nc4cc(F)ccc4C(N)=O)c4cc[nH]c4n3)c(OC)c2)CC1
condition met

I'd appreciate it if you could say whether CC(=O)Nc1cccc(C#Cc2cncnc2Nc2ccc(OCc3cccc(F)c3)c(Cl)c2)c1 has inhibition at least equal to 5%.
condition met

Does Cc1ccc2c(-c3ccnc(Nc4ccccc4)n3)c(-c3ccc(F)cc3)nn2n1 have a reported inhibition of at least 5%?
condition met

Decide: is the reported value of inhibition for Nc1nc(-c2cccc(Cl)c2)c(-c2ccc3ncccc3n2)s1 equal to or greater than 5%?
condition met

Entry CCN(CC)S(=O)(=O)c1ccc(OC)c(Nc2ncc(-c3ccccc3)o2)c1 : is its inhibition no less than 5%?
condition met

====

# study.target: High affinity nerve growth factor receptor (Homo sapiens) (UniProt P04629);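 note: each value is the mean percent inhibition of TRKA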
# Sequence (P04629 33-796 limits assumed): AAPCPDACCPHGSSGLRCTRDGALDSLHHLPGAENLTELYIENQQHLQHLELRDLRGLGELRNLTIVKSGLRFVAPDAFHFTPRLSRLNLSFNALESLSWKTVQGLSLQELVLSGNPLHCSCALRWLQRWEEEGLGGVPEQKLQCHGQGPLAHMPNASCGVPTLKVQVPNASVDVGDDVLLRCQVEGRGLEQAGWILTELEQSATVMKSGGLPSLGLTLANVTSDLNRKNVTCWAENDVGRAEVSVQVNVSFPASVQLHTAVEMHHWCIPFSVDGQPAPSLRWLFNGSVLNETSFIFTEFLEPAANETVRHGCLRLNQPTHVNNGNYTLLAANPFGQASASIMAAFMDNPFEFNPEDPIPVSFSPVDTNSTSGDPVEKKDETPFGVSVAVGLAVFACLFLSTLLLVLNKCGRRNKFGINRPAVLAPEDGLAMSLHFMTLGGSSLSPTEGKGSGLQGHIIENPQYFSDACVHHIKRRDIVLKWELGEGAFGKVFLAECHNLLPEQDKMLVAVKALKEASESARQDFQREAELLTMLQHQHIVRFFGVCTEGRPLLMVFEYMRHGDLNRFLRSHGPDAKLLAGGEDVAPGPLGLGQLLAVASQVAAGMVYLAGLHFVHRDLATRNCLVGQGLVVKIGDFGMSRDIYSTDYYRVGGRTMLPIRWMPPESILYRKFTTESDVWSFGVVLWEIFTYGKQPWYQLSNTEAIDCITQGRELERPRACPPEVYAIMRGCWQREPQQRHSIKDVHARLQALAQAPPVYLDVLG
# measurement.conditions: at 1 µM
Assignment: determine reported inhibition for the given molecules.
Answers are plain numbers, in %.

CCCN(CCS(C)(=O)=O)Cc1ccc(-c2ccc3ncnc(Nc4ccc(OCc5cccc(F)c5)c(Cl)c4)c3c2)o1 | 0.23
Fc1cccc(COc2ccc(Nc3ncnc4sc(-c5ccco5)cc34)cc2Cl)c1 | 0.66
Fc1ccc(-c2cc(-c3c[nH]nc3-c3ccccn3)ccn2)cc1 | 0.04
CCN(CC)S(=O)(=O)c1ccc(OC)c(Nc2ncc(-c3ccccc3)o2)c1 | 41.5

For each of the molecules below, state inhibition.
1. CC(C)COC(=O)c1ccc2c(c1)/C(=C/Nc1ccc(S(N)(=O)=O)cc1)C(=O)N2
2. COc1cc2c(cc1Nc1nc(Nc3ccsc3C(N)=O)c3cc[nH]c3n1)N(C(=O)CN(C)C)CCC2(C)C
3. c1ccc(-c2nc3n(c2-c2ccc4c(c2)OCO4)CCC3)nc1
4. Nc1nc(-c2ccc(F)cc2)c(-c2ccc3ncccc3n2)s1
5. COc1ccc2[nH]c3c4[nH]c5ccc(OC)cc5c4c4c(c3c2c1)C(=O)NC4=O
6. Nc1nc(-c2cccc(Cl)c2)c(-c2ccc3ncccc3n2)s1

30.4
13.6
2.69
4.77
16.6
-0.34

Batch request: inhibition per item, same order as input.
1. COc1ccc(CNC(=O)c2ccc(-c3cc(-c4nnc(C)o4)ccc3C)cc2)cc1
2. COC(=O)Nc1nc2ccc(S(=O)(=O)c3ccc(NC(=O)Nc4cc(C(F)(F)F)ccc4F)cc3)cc2[nH]1
3. COc1cc(Nc2nccc(Nc3ccc4c(C)n[nH]c4c3)n2)cc(OC)c1OC
4. Nc1ncc(-c2cccc(S(N)(=O)=O)c2)c2scc(-c3ccc(F)c(Cl)c3)c12
5. CCn1c(-c2nonc2N)nc2c(C#CC(C)(C)O)nc(OC[C@H](N)c3ccccc3)cc21
6. CCN1CCC(CC(=O)Nc2n[nH]c3nnc(-c4cccc(F)c4F)cc23)CC1

-1.3
2.05
64.1
2.2
3.54
-2.79

Can you look up the measured inhibition of CS(=O)(=O)CCNCc1coc(-c2ccc3ncnc(Nc4ccc(OCc5ccccc5)cc4)c3c2)c1 for me?
4.8
